tested.system: human BCL6 BTB domain (Trx-6xHis-BCL6) (Homo sapiens (Human), UniProt P41182)
measurement.notes: HTRF in vitro assay (BCL6 BTB domain / BCOR-AF633 peptide)
Assay type: binding
condition.summary: further generated data (Table 1b); 1 nM Trx-6xHis-BCL6, 0.5 nM anti-6xHis-Terbium cryptate
readout: HTRF pIC50
Answers are plain numbers.

Sample answers from the record:
> print(dat)
                                   molecule     readout  readout.value
1  Cn1c(=O)cc(NC(C)(C)c2ncccn2)c2cc(Nc3cc(C(=O)N4CC5(CCO5)C4)nc(Cl)c3C#N)ccc21  HTRF pIC50           7.82
2  C[C@@H](CCO)Nc1cc(=O)n(C)c2ccc(Nc3ccnc(Cl)c3C#N)cc12  HTRF pIC50           6.01
3  Cn1c(=O)cc(N[C@H]2CCOC2)c2cc(Nc3ccnc(Cl)c3C#N)ccc21  HTRF pIC50           6.13

## Input What does the data say about its HTRF pIC50? Entry: CC(Nc1cc(=O)n(C)c2ccc(Nc3ccnc(Cl)c3C#N)cc12)c1ncc(N2CCOC(C(F)(F)F)C2)cn1 (stereo not shown) [Example 10d]
## Output 7.33

###

tested.system: human BCL6 BTB domain (Trx-6xHis-BCL6) (Homo sapiens (Human), UniProt P41182)
measurement.notes: HTRF in vitro assay (BCL6 BTB domain / BCOR-AF633 peptide)
Assay type: binding
condition.summary: further generated data (Table 1b); 1 nM Trx-6xHis-BCL6, 0.5 nM anti-6xHis-Terbium cryptate
Give HTRF pIC50 for every item shown.
One number for each entry.

> print(dat)
                                   molecule                             tested.system  readout.value
1  C[C@@H](Nc1cc(=O)n(C)c2ncc(Nc3ccnc(Cl)c3C#N)cc12)C1CC1 [Example 24d]  human BCL6 BTB domain (Trx-6xHis-BCL6) (Homo sapiens (Human), UniProt P41182)           6.53
2  C[C@H](CO)Nc1cc(=O)n(C)c2ccc(Nc3ccnc(Cl)c3C#N)cc12 [Example 3j]  human BCL6 BTB domain (Trx-6xHis-BCL6) (Homo sapiens (Human), UniProt P41182)           6.14
3  Cn1c(=O)cc(NC2CC2)c2cc(Nc3cc(C(=O)O)nc(Cl)c3C#N)ccc21 [Example 2b]  human BCL6 BTB domain (Trx-6xHis-BCL6) (Homo sapiens (Human), UniProt P41182)           6.55
4  COCC(C)(C)Nc1cc(=O)n(C)c2ccc(Nc3nc(-n4nc(C)cc4C)ncc3Cl)cc12 [Example 14e]  human BCL6 BTB domain (Trx-6xHis-BCL6) (Homo sapiens (Human), UniProt P41182)           6.54
5  Cc1cnc(C(C)Nc2cc(=O)n(C)c3ccc(Nc4ccnc(Cl)c4C#N)cc23)nc1 (stereo not drawn) [Example 10f]  human BCL6 BTB domain (Trx-6xHis-BCL6) (Homo sapiens (Human), UniProt P41182)           7.12

Quick one: give me HTRF pIC50 for each item below, same order please.
1. CC(Nc1cc(=O)n(C)c2ccc(Nc3ccnc(Cl)c3C#N)cc12)c1ncc(N2CCOCC2)cn1 (stereo not drawn) [Example 10x]
2. C[C@@H]1CN(c2cc(Nc3ccc4c(c3)c(N[C@H](C)C3CC3)cc(=O)n4C)c(Cl)cn2)C[C@H](C)O1 [Example 6h]
3. C[C@@H]1CN(c2ncc(Cl)c(Nc3ccc4c(c3)c(NC(C)(C)c3ncccn3)nc(=O)n4C)n2)C[C@H](C)C1(F)F [Example 25a]
4. C[C@@H](Nc1cc(=O)n(C)c2ccc(Nc3ccnc(Cl)c3C#N)cc12)C1CC1 [Example 10n]
5. C[C@@H](Nc1cc(=O)n(C)c2ncc(Nc3ccnc(Cl)c3Cl)cc12)C1CC1 [Example 6f]

## Output
[7.56, 6.00, 6.73, 6.55, 6.21]

List the reported HTRF pIC50 of each molecule below.
1. C[C@@H]1CN(c2ncc(Cl)c(Nc3ccc4c(c3)c(NC(C)(C)c3ncccn3)cc(=O)n4C)n2)C[C@H](C)O1 [Example 12f]
2. CC(Nc1cc(=O)n(C)c2ccc(Nc3ccnc(Cl)c3C#N)cc12)c1cnccn1 (stereo not drawn) [Example 1j]
3. C[C@@H]1CN(c2ncc(Cl)c(Nc3ccc4c(c3)c(N[C@H](C)C3CC3)cc(=O)n4C)n2)C[C@H](C)O1 [Example 17d]
4. COCC(C)(C)Nc1cc(=O)n(C)c2ccc(Nc3nc(N4CCC(C(=O)N(C)C)CC4)ncc3Cl)cc12 [Example 16d]
5. C[C@@H](Nc1cc(=O)n(C)c2ccc(Nc3cc(C(=O)N4CCC4)ncc3Cl)cc12)C1CC1 [Example 15d]

## Output
[6.57, 6.29, 6.19, 6.25, 6.42]

The measurements presented in this section are drawn from patent US11161839B2.
